Source listed as patent US8883963B2.

assay: Stability in simulated gastric fluid; type: in vitro ADME; settings: 2 μM peptidomimetic, simulated gastric fluid pH 1.5, 37° C.; read-out: half-life (t1/2) when incubated with simulated gastric fluid
Non-standard residues stand in square brackets, D forms with d. Residues, ends and D or L forms follow the SMILES beside them. ξ: configuration not given here. *: point of attachment. Leu(5,5,5,5',5',5'-F6) = N[C@@H](CC(C(F)(F)F)C(F)(F)F)C(=O)O; X4 = CCc1cc(OC)ccc1-c1ccc(CC(CNC(CCCc2ccccc2F)C(N)=O)N*)cc1; ξBip(2'-Et-4'-OMe) = CCc1cc(OC)ccc1-c1ccc(CC(N)C(=O)O)cc1; ξbishPhe(2-F) = NC(CCCc1ccccc1F)C(=O)O; ξαMePhe(2-F) = CC(N)(Cc1ccccc1F)C(=O)O; aThr = C[C@H](O)[C@H](N)C(=O)O; Aib = CC(C)(N)C(=O)O
metric.name: half-life at 2 μM

{"columns": ["compound", "metric.name", "test.value"],
 "data": [
  ["CCc1cc(OC)ccc1-c1ccc(CC(NC(=O)[C@H](CC(=O)O)NC(=O)[C@H](CO)NC(=O)[C@@H](NC(=O)C(C)(Cc2ccccc2)NC(=O)[C@@H](NC(=O)CNC(=O)[C@H](CC(C(F)(F)F)C(F)(F)F)NC(=O)C(C)(C)NC(=O)[C@@H](N)Cc2c[nH]cn2)[C@@H](C)O)[C@@H](C)O)C(=O)NC(CCCc2ccccc2)C(N)=O)cc1 (single isomer, unassigned)", "half-life at 2 μM", "30 min"],
  ["CCc1cc(OC)ccc1-c1ccc(CC(NC(=O)[C@H](CC(=O)O)NC(=O)[C@H](CO)NC(=O)[C@@H](NC(=O)[C@H](Cc2ccccc2)NC(=O)[C@@H](NC(=O)CNC(=O)C(CCC#N)NC(=O)C(C)(C)NC(=O)[C@@H](N)Cc2c[nH]cn2)[C@@H](C)O)[C@@H](C)O)C(=O)NC(CCCc2ccccc2F)C(N)=O)cc1 (single isomer, unassigned)", "half-life at 2 μM", "30 min"],
  ["CCc1cc(OC)ccc1-c1ccc(CC(NC(=O)[C@H](CC(=O)O)NC(=O)[C@H](CO)NC(=O)[C@@H](NC(=O)C(C)(Cc2ccccc2F)NC(=O)[C@@H](NC(=O)CNC(=O)C(CCC#N)NC(=O)C(C)(C)NC(=O)[C@@H](N)Cc2c[nH]cn2)[C@@H](C)O)[C@H](C)O)C(=O)NC(CCCc2ccccc2F)C(N)=O)cc1 (single isomer, unassigned)", "half-life at 2 μM", "240 min"],
  ["CCc1cc(OC)ccc1-c1ccc(CC(NC(=O)[C@H](CC(=O)O)NC(=O)[C@H](CO)NC(=O)[C@@H](NC(=O)C(C)(Cc2ccccc2F)NC(=O)[C@@H](NC(=O)CNC(=O)[C@H](CC(C(F)(F)F)C(F)(F)F)NC(=O)C(C)(C)NC(=O)[C@H](Cc2c[nH]cn2)NC(C)=O)[C@@H](C)O)[C@@H](C)O)C(=O)NC(CCCc2ccccc2F)C(N)=O)cc1 (stereo partly shown) [compound 212] (Ac-H[Aib][Leu(5,5,5,5',5',5'-F6)]GT[ξαMePhe(2-F)]TSD[ξBip(2'-Et-4'-OMe)][ξbishPhe(2-F)]-NH2)", "half-life at 2 μM", "30 min"],
  ["CCc1cc(OC)ccc1-c1ccc(CC(NC(=O)[C@H](CC(=O)O)NC(=O)[C@H](CO)NC(=O)[C@@H](NC(=O)C(C)(Cc2ccccc2F)NC(=O)[C@@H](NC(=O)CNC(=O)C(CCC#N)NC(=O)C(C)(C)NC(=O)[C@H](Cc2c[nH]cn2)NC(=O)OC)[C@@H](C)O)[C@@H](C)O)C(=O)NC(CCCc2ccccc2F)C(N)=O)cc1 (single isomer, unassigned)", "half-life at 2 μM", "30 min"],
  ["CCc1cc(OC)ccc1-c1ccc(CC(CNC(CCCc2ccccc2F)C(N)=O)NC(=O)[C@H](CC(=O)O)NC(=O)[C@H](CO)NC(=O)[C@@H](NC(=O)C(C)(Cc2ccccc2F)NC(=O)[C@@H](NC(=O)CNC(=O)[C@H](CC(C(F)(F)F)C(F)(F)F)NC(=O)C(C)(C)NC(=O)[C@@H](N)Cc2c[nH]cn2)[C@H](C)O)[C@H](C)O)cc1 (stereo partly shown) [compound 214] (H-H[Aib][Leu(5,5,5,5',5',5'-F6)]G[aThr][ξαMePhe(2-F)][aThr]SD-X4)", "half-life at 2 μM", "30 min"],
  ["CCc1cc(OC)ccc1-c1ccc(CC(CNC(CCCc2ccccc2)C(N)=O)NC[C@H](CC(=O)O)NC(=O)[C@H](CO)NC(=O)[C@@H](NC(=O)C(C)(Cc2ccccc2F)NC(=O)[C@@H](NC(=O)CNC(=O)C(CCC#N)NC(=O)C(C)(C)NC(=O)[C@@H](N)Cc2c[nH]cn2)[C@H](C)O)[C@H](C)O)cc1 (single isomer, unassigned)", "half-life at 2 μM", "> 1440 min"],
  ["CCc1cc(OC)ccc1-c1ccc(CC(NC(=O)[C@H](CC(=O)O)NC(=O)[C@H](CO)NC(=O)[C@@H](NC(=O)[C@H](Cc2ccccc2)NC(=O)[C@@H](NC(=O)CNC(=O)C(CCC#N)NC(=O)C(C)(C)NC(=O)[C@@H](N)Cc2c[nH]cn2)[C@@H](C)O)[C@@H](C)O)C(=O)NC(CCCc2ccccc2)C(N)=O)cc1 (single isomer, unassigned)", "half-life at 2 μM", "> 1440 min"],
  ["CCc1cc(OC)ccc1-c1ccc(CC(NC(=O)[C@H](CC(=O)O)NC(=O)[C@H](CO)NC(=O)[C@@H](NC(=O)[C@H](Cc2ccccc2)NC(=O)[C@@H](NC(=O)CNC(=O)C(CCC#N)NC(=O)C(C)(C)NC(=O)[C@@H](N)Cc2c[nH]cn2)[C@@H](C)O)[C@@H](C)O)C(=O)NC(CCCc2ccc(Cl)cc2C)C(N)=O)cc1 (single isomer, unassigned)", "half-life at 2 μM", "30 min"],
  ["CCc1cc(OC)ccc1-c1ccc(CC(NC(=O)[C@H](CC(=O)O)NC(=O)[C@H](CO)NC(=O)[C@@H](NC(=O)[C@H](Cc2ccccc2)NC(=O)[C@@H](NC(=O)CNC(=O)C(CCC#N)NC(=O)C(C)(C)NC(=O)[C@@H](N)Cc2c[nH]cn2)[C@@H](C)O)[C@@H](C)O)C(=O)NC(CCCc2ccc(F)cc2C(F)(F)F)C(N)=O)cc1 (single isomer, unassigned)", "half-life at 2 μM", "30 min"]
]}
